- test system: human BRD4 second bromodomain (BDII_E352-M457) (Homo sapiens (Human))
- test description: TR-FRET bromodomain binding assay, BRD4 second bromodomain
pKi: −log10 of the molar value.
measured property: pKi

{"molecule": "Cc1cccc(OCC2CC2)c1-c1cn(C)c(=O)c2[nH]ccc12 [Example 247]", "data value": 5.52}
{"molecule": "CNS(=O)(=O)Nc1ccc(OC2CCCOC2)c(-c2cn(C)c(=O)c3[nH]ccc23)c1 (stereo not shown) [Example 108]", "data value": 8.28}
{"molecule": "Cn1cc(-c2cc(C(=O)NC3CCS(=O)(=O)C3)ccc2Oc2ccccc2)c2cc[nH]c2c1=O (stereo not shown) [Example 18]", "data value": 7.99}
{"molecule": "Cn1cc(-c2cc(S(N)(=O)=O)cnc2Oc2ccc(F)cc2F)c2cc[nH]c2c1=O [Example 242]", "data value": 8.24}
{"molecule": "Cn1cc(-c2cc(C(=O)NCC3CCCO3)ccc2Oc2ccccc2)c2cc[nH]c2c1=O (stereo not shown) [Example 14]", "data value": 7.91}

[I] Cn1cc(-c2cc(S(=O)(=O)Nc3ccccc3)ccc2OCC2CC2)c2cc[nH]c2c1=O [Example 313]
[II] Cn1cc(-c2cc(C(=O)N3CCN(C(=O)N4CCCC4)CC3)ccc2Oc2ccc(F)cc2F)c2cc[nH]c2c1=O [Example 119]
[III] CCS(=O)(=O)c1ccc(OC2CCC(F)(F)CC2)c(-c2cn(C)c(=O)c3[nH]ccc23)c1 [Example 169]
[IV] Cn1cc(-c2cc(S(C)(=O)=O)ccc2OCCN2CCCC2=O)c2cc[nH]c2c1=O [Example 232]
Q: Ordering: ascending pKi. To answer, write out the labels according to the requested order.
Result: IV, II, I, III
(IV: 6.35, II: 7.65, I: 8.21, III: 9.07)

[1] Cn1cc(-c2cc(S(C)(=O)=O)ccc2Oc2ccc(F)cc2F)c2cc(COc3ccccc3)[nH]c2c1=O [Example 292]
[2] CC(C)COc1ccc(S(C)(=O)=O)cc1-c1cn(C)c(=O)c2[nH]ccc12 [Example 221]
[3] Cn1cc(-c2cc(S(C)(=O)=O)ccc2Oc2ccc(F)cc2F)c2cc(C(N)=O)[nH]c2c1=O [Example 252]
Q: Hey, can you sort those molecules up there by pKi, smallest first? // ordering of labels required in reply
Result: 1, 2, 3

[a] Cn1cc(-c2cc(C(=O)N3CCC(NC(=O)OC(C)(C)C)C3)ccc2Oc2ccc(F)cc2F)c2cc[nH]c2c1=O (stereo not shown) [Example 54]
[b] Cc1cc(OCC2CC2)c(-c2cn(C)c(=O)c3[nH]ccc23)cc1NS(C)(=O)=O [Example 263]
[c] CN(C)CCS(=O)(=O)Nc1ccc(Oc2ccc(F)cc2F)c(-c2cn(C)c(=O)c3[nH]ccc23)c1 [Example 300]
[d] Cn1cc(-c2cc(S(C)(=O)=O)ccc2OC2CCCCC2)c2cc[nH]c2c1=O [Example 215]
Q: Rank entries according to their pKi, from the largest number down. Quick reminder: the answer is the labels in the order asked.
Result: d, b, a, c
